system: glucose dehydrogenase (EC1.1.1.47); experiment: Substrate specificity of the glucose dehydrogenase (enzyme activity determination); format: biochemical, Pseudomonas sp. FH1227; conditions: Substrate (100 mM); β-D-glucose = 100.0
Threshold rule: Relative activity (%) greater than or equal to 1% is Y; below that, N.

# count of solved cases: 5
OC[C@@H](O)[C@@H](O)[C@H](O)[C@@H](O)CO; N
O=C(CO)[C@@H](O)[C@H](O)[C@H](O)CO; N
OC[C@H]1O[C@H](O[C@H]2[C@H](O)[C@@H](O)[C@H](O)O[C@@H]2CO)[C@H](O)[C@@H](O)[C@@H]1O; Y
OC[C@H]1O[C@@H](O[C@H]2[C@H](O)[C@@H](O)C(O)O[C@@H]2CO)[C@H](O)[C@@H](O)[C@H]1O (stereo partly shown); Y
OC[C@H]1O[C@@](CO)(O[C@H]2O[C@H](CO)[C@@H](O)[C@H](O)[C@H]2O)[C@@H](O)[C@@H]1O; N

Query: # bool: Relative activity (%) of OC[C@H]1OC(O)[C@@H](O)[C@@H](O)[C@@H]1O (stereo partly shown) >= 1%
Reply: Y

Query: # bool: Relative activity (%) of `OC[C@H]1O[C@@H](O)[C@H](O)[C@@H](O)[C@@H]1O` >= 1%
Reply: Y

* * *

test system: glucose dehydrogenase (EC1.1.1.47); test: Substrate specificity of the glucose dehydrogenase (enzyme activity determination); format: biochemical, Pseudomonas sp. FH1227; settings: Substrate (100 mM); β-D-glucose = 100.0
Reported Relative activity (%) values are given for each entry in this list.
API: value field is a number in %; no unit string.

Use these answered entries as a reference point.
OC[C@@H]1OC(O)[C@@H](O)[C@H](O)[C@H]1O (some centres unmarked); 0.0
O=C(CO)[C@@H](O)[C@H](O)[C@@H](O)CO; 0.3
O[C@H]1[C@H](O)[C@@H](O)[C@H](O)[C@@H](O)[C@H]1O; 0.2
OC[C@H]1OC(O)[C@H](O)[C@@H](O)[C@H]1O (some centres unmarked); 0.1

Please turn your attention to the following entry.
// assay glucose dehydrogenase (EC1.1.1.47), entry `OC[C@@H](O)[C@@H](O)[C@H](O)[C@H](O)CO` , Relative activity (%) value = 0.0
